# Target Or System: HLA-A*02:01;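 note: lysates heated 10 min at 37–73 °C, complexes pulled down with pan-HLA I antibody, peptide signal by DIA-MS relative to 37 °C, Tm where half the complex is unfolded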
# Experimental Details: thermal melting temperature (Tm) of peptide-HLA complex; higher = more thermostable pHLA complex
# Condition Details: C1R-A*02:01
Whole data set: some 1,100 sequences, median “thermal melting temperature (Tm) of peptide-HLA complex” near 58, cut for the lowest 2% near 42. This excerpt belongs to a sample that is enriched for the lowest values.
Parameter Measured: thermal melting temperature
Please append the unit to your numeric answer.

Consider the following illustrative entries.
Seq: LLYDGKLSSA
Test Value: 59.4 °C

Seq: RLDEAFDFV
Test Value: 57 °C

Which thermal melting temperature value is on record for TLLTFFHEL ?
57.4 °C

Which thermal melting temperature value is on record for YIYDKDMEII ?
57.2 °C

All values here come from the supplement of paper PMC7726561.
